Test System: T1, CLDN18.2 endogenously expressed on SNU620 gastric cancer cells (UniProt P56856-2 1-261, limits assumed)
T1 construct: whole, on cells; also called SU620
Measurement Protocol: FACS Exp. 3, SNU620 cells
Attribute Measured: MFI_SNU620 (@30 ug/ml) (MFI)
Numbers only, in MFI.

Below, 2 binders whose answers are already recorded.
Binder	Attribute Measured	Result
hz282-6 (antibody, V domains shown, humanized IgG; constant regions not specified) VH: QVQLQESGPGLVKPSETLSLTCTVSGFSLTSYNVYWIRQPPGKGLEWIGVIWNTGATRYNSALKSRVTISKDTSKNQVSLKLSSVTAADTAVYYCARDSAMPAIPFAYWGQGTLVTVSS VL: DIVMTQSPDSLAVSLGERATINCKSSQSLFGSVRQKNYLAWYQQKPGQSPKLLIYLASTRESGVPDRFSGSGSGTDFTLTISSLQAEDVAKYYCQQYYDIPWTFGGGTKVEIK	MFI_SNU620 (@30 ug/ml)	1290
hz282-16 (antibody, V domains shown, humanized IgG; constant regions not specified) VH: QVQLQESGPGLVKPSETLSLTCTVAGFSLTSYNVYWIRQPPGKGLEWIGVIWNTGATRYNSALKSRVTISKDTSKSQVSLKLSSVTAADTAVYYCARDSAMPAIPFAYWGQGTLVTVSS VL: DIQMTQSPSSLSASVGDRVTITCKSSQSLFGSVRQKNYLAWYQQKPGKSPKLLIYLASTRESGVPDRFSGSGSGTDFTLTISSLQPEDFAKYYCQQYYDIPWTFGGGTKVEIK	MFI_SNU620 (@30 ug/ml)	1280

Now examine the next entry.
Given the binder hz282-10 (antibody, V domains shown, humanized IgG; constant regions not specified) VH: QVQLQESGPGLVKPSETLSLTCTVSGFSLTSYNVYWIRQPPGKGLEWIGVIWNTGATRYNSALKSRVTISKDTSKNQVSLKLSSVTAADTAVYYCARDSAMPAIPFAYWGQGTLVTVSS VL: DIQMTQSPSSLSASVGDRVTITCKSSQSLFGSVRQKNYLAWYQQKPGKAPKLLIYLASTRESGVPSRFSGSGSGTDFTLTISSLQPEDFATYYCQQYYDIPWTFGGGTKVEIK , what is its reported MFI_SNU620 (@30 ug/ml)?
1310

src = patent US20210380680A1
